Values were extracted from patent US20250250261A1.

# Measured target: ERα (Homo sapiens, UniProt P03372)
# Construct: host or cells: MCF7
# Sequence (P03372 1-595): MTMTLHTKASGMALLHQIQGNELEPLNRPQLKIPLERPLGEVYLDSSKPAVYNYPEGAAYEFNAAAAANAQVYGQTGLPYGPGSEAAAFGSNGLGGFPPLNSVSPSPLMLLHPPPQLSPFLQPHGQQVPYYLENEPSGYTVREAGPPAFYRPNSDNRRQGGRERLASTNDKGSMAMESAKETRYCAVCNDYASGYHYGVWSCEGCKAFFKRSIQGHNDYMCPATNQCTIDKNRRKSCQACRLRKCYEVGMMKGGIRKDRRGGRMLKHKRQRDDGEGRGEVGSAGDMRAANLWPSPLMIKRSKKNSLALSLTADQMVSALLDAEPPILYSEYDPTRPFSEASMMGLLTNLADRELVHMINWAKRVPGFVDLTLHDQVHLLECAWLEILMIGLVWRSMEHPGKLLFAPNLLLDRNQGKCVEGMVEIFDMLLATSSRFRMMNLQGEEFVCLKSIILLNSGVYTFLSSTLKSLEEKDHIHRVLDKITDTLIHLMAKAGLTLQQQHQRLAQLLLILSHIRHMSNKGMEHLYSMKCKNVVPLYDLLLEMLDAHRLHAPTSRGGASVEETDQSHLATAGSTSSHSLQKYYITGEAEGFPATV
# Assay text: Estrogen receptor degradation activity: breast cancer cell ERα in cell western assay (MCF7 cells)
# Format: cell-based
# Condition details: 4 hours, % of ERα levels decrease relative to fulvestrant (0.1 μM) and DMSO
Attribute: % Degradation At 0.3 μM

{"Smiles notation": "Cc1c(C2=C(c3ccc(/C=C4/CCN(CCCF)C4)cc3)c3ccc(C(=O)O)cc3CCC2)cccc1C(F)(F)F", "Measured target": "ERα (Homo sapiens, UniProt P03372)", "% Degradation At 0.3 μM": "92%"}
{"Smiles notation": "Cl.O=C(O)c1ccc2c(c1)CCC(c1ccc(Cl)cc1Cl)=C2c1ccc(/C=C2/CCN(CCCF)C2)cc1", "Measured target": "ERα (Homo sapiens, UniProt P03372)", "% Degradation At 0.3 μM": "91%"}
{"Smiles notation": "Oc1ccc2c(c1)CCCC(c1ccc(Cl)cc1Cl)=C2c1ccc(/C=C2/CCN(CCC(F)F)C2)cc1", "Measured target": "ERα (Homo sapiens, UniProt P03372)", "% Degradation At 0.3 μM": "61%"}
{"Smiles notation": "O=C(O)c1ccc2c(c1)CCCC(c1ccccc1C(F)(F)F)=C2c1ccc(/C=C2/CCN(CCCF)C2)cc1", "Measured target": "ERα (Homo sapiens, UniProt P03372)", "% Degradation At 0.3 μM": "89%"}

---

Attribute: % Degradation At 0.3 μM
# Measured target: ERα (Homo sapiens, UniProt P03372)
# Construct: host or cells: MCF7
# Sequence (P03372 1-595): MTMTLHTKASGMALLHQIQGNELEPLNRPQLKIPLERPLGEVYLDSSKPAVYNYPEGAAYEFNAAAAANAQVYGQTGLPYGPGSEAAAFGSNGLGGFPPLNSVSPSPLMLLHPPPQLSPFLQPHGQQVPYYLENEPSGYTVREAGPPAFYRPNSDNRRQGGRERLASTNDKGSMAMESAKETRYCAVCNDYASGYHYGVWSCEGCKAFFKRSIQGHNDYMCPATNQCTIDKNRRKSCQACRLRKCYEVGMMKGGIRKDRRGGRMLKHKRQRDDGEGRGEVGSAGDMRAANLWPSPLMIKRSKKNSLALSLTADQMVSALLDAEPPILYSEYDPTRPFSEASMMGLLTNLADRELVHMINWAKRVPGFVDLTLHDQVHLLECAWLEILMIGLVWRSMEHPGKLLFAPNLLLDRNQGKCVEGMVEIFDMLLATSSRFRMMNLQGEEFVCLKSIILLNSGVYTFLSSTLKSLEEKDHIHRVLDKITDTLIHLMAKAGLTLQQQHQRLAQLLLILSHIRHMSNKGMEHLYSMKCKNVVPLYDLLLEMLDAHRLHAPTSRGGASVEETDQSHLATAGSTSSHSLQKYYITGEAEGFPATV
# Assay text: Estrogen receptor degradation activity: breast cancer cell ERα in cell western assay (MCF7 cells)
# Assay type: cell-based
# Condition details: 4 hours, % of ERα levels decrease relative to fulvestrant (0.1 μM) and DMSO

{"Smiles notation": "O=C(O)c1ccc2c(c1)CCCC(c1ccc(Cl)cc1Cl)=C2c1ccc(/C=C2/CCN(CCCF)C2)c(F)c1", "% Degradation At 0.3 μM, %": 96}
{"Smiles notation": "Cl.O=C(O)c1ccc2c(c1)CCCC(c1ccc(F)cc1F)=C2c1ccc(/C=C2/CCN(CCC(F)F)C2)cc1", "% Degradation At 0.3 μM, %": 88}
{"Smiles notation": "O=C(O)c1ccc2c(c1)CCCC(c1ccc(F)cc1C(F)(F)F)=C2c1ccc(/C=C2/CCN(CCC(F)F)C2)cc1", "% Degradation At 0.3 μM, %": 86}
{"Smiles notation": "Cc1cc(F)ccc1C1=C(c2ccc(/C=C3/CCN(CCC(F)F)C3)cc2)c2ccc(C(=O)O)cc2CCC1", "% Degradation At 0.3 μM, %": 88}
